target.of.assay: human P2X3 receptor (Homo sapiens (Human), UniProt P56373)
Sequence (P56373 whole entry): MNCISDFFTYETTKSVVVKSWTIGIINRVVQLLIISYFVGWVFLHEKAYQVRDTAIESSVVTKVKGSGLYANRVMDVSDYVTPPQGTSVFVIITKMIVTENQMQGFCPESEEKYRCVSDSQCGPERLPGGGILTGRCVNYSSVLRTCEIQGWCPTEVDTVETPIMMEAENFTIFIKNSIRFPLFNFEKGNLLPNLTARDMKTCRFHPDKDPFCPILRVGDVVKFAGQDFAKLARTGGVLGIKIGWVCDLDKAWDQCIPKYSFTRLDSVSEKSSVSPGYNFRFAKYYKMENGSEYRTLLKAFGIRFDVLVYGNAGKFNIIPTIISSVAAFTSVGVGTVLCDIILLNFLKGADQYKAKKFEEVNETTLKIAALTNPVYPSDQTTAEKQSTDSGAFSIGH
method.description: Evaluation of human P2X3 receptor inhibitory activity (Test Example 1-1, FDSS 3000, 96-well, 50 nM ATP)
Format: cell-based
test.settings: human P2X3 receptor in C6BU-1 cells; Test Example 1-1 (compounds I-001 to I-300)
Measured log10 of IC50, listed per entry for reference.
Annotation: log10 of IC50, nM basis.

• CCC(=O)Nc1c[nH]/c(=N\c2ccc(Oc3cccc(C(=O)O)n3)cc2)n(Cc2ccc(Cl)cc2)c1=O [Compound I-104] = 0.48
• O=C(Nc1c[nH]/c(=N\c2ccc(Oc3ccon3)cc2)n(Cc2ccc(Cl)cc2)c1=O)C1CCOC1 (stereo not shown) [Compound I-192] = 0.78
• O=c1c(CO)c[nH]/c(=N\c2ccc(Oc3cccc(F)n3)cc2)n1Cc1ccc(Cl)cc1 [Compound I-037] = 1.53
• CCC(=O)Nc1c[nH]/c(=N\c2ccc(Oc3ccnc(C(=O)O)c3)cc2)n(Cc2ccc(Cl)cn2)c1=O [Compound I-289] = 1.38
• CCn1c(=O)cc(Nc2ccc(Oc3cccc(C(=O)O)n3)c(C)c2)n(Cc2ccc(Cl)cc2)c1=O [Compound I-028] = 0.00

input: log10 of IC50 for O=C(O)c1c[nH]/c(=N\c2ccc(Oc3ccon3)cc2)n(Cc2ccc(Cl)cc2)c1=O [Compound I-099] ?
output: 2.73

input: log10 of IC50 for CCc1oc2ccc(Nc3ncc(C(N)=O)c(=O)n3Cc3ccc(Cl)cc3)cc2c1C [Compound I-020] ?
output: 1.70

input: log10 of IC50 for CN(C)C(=O)c1c[nH]/c(=N\c2ccc(Oc3cccc(C(N)=O)n3)cc2)n(Cc2ccc(Cl)cc2)c1=O [Compound I-220] ?
output: 2.25

input: log10 of IC50 for CCn1c(=O)cc(Nc2ccc(Oc3ccc(C(=O)OC)nn3)cc2)n(Cc2ccc(Cl)cc2)c1=O [Compound I-173] ?
output: 0.60

input: log10 of IC50 for C[C@@H](Cn1c(=O)cc(Nc2ccc(Oc3ccccc3)cc2)n(Cc2ccc(Cl)cc2)c1=O)C(=O)O [Compound I-117] ?
output: 1.41

input: log10 of IC50 for CCC(=O)Nc1c[nH]/c(=N\c2ccc(Oc3ccc(C(=O)OC)nc3)cc2)n(Cc2ccc(Cl)cc2)c1=O [Compound I-091] ?
output: 0.48

input: log10 of IC50 for CCOC(=O)c1cnc(Nc2ccc(Oc3ncc(C(=O)O)s3)cc2)n(Cc2ccc(Cl)cc2)c1=O [Compound I-059] ?
output: 0.78

input: log10 of IC50 for CN(C)C(=O)c1c[nH]/c(=N\c2ccc(Oc3cccc(C(=O)O)n3)cc2)n(Cc2ccc(Cl)cc2)c1=O [Compound I-222] ?
output: 1.67
